- assayTarget: human HER3 endogenously expressed on human cancer cells (SK-Br-3, BT-474, MCF7) (human, UniProt P21860 20-1342)
- methodSummary: cell-based or functional assay
Answer each item with its documented SK-Br-3 pHER3 % inhibition.
The answer is to be given in %; state only the numeric part.

Ask: Which SK-Br-3 pHER3 % inhibition is listed for MOR13670 (antibody, human IgG1, lambda, V domains shown) VH: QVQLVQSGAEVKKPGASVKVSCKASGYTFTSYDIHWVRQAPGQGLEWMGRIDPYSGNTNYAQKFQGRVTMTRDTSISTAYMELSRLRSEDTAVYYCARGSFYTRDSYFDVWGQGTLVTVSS VL: DIALTQPASVSGSPGQSITISCTGTSSDVGTYNQVSWYQQHPGKAPKLMIYGVSKRPSGVSNRFSGSKSGNTASLTISGLQAEDEADYYCQVADQGWHQVFGGGTKLTVLG ?
Result: 60

Ask: Which SK-Br-3 pHER3 % inhibition is listed for MOR12605 (antibody, human IgG1, kappa, V domains shown, Tested as IgG) VH: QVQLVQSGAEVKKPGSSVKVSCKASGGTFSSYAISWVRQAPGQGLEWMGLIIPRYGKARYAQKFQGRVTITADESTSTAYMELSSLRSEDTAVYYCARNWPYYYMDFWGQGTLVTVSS VL: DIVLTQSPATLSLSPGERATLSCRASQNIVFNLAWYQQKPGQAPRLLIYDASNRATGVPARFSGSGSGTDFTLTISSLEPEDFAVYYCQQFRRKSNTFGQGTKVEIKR ?
Result: 73

Ask: Which SK-Br-3 pHER3 % inhibition is listed for MOR13669 (antibody, human IgG1, lambda, V domains shown) VH: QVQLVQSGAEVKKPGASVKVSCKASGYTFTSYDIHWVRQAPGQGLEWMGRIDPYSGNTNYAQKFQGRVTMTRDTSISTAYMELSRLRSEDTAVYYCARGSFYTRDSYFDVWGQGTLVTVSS VL: DIALTQPASVSGSPGQSITISCTGTSSDVGTYNQVSWYQQHPGKAPKLMIYGVSKRPSGVSNRFSGSKSGNTASLTISGLQAEDEADYYCSTATAMTVSLVFGGGTKLTVLG ?
Result: 58

Ask: Which SK-Br-3 pHER3 % inhibition is listed for MOR14538 (antibody, human IgG1, lambda, V domains shown, Tested as IgG) VH: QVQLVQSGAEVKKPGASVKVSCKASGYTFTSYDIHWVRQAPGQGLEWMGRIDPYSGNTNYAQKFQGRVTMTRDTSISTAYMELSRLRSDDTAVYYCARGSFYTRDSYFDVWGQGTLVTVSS VL: QSALTQPASVSGSPGQSITISCTGTSSDVGTYNQVSWYQQHPGKAPKLMIYGVSKRPSGVSNRFSGSKSGNTASLTISGLQAEDEADYYCASADHSYHTVFGGGTKLTVLG ?
Result: 71

Ask: Which SK-Br-3 pHER3 % inhibition is listed for MOR13668 (antibody, human IgG1, lambda, V domains shown) VH: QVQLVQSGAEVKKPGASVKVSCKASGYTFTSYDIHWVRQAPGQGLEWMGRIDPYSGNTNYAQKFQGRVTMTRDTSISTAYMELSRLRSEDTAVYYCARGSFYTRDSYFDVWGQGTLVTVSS VL: DIALTQPASVSGSPGQSITISCTGTSSDVGTYNQVSWYQQHPGKAPKLMIYGVSKRPSGVSNRFSGSKSGNTASLTISGLQAEDEADYYCQVWDSDQAMVFGGGTKLTVLG ?
Result: 58

Ask: Which SK-Br-3 pHER3 % inhibition is listed for MOR12920 (antibody, human IgG1, lambda, V domains shown) VH: QVQLVQSGAEVKKPGASVKVSCKASGYTFTGYYMHWVRQAPGQGLEWMGDIEPYHGKPLYAQKFQGRVTMTRDTSISTAYMELSRLRSEDTAVYYCARGSFYTRDSYFDVWGQGTLVTVSS VL: DIALTQPASVSGSPGQSITISCTGTSSDVGTYNQVSWYQQHPGNAPKLMIYGVSKRPSGVSNRFSGSKSGNTASLTISGLQAEDEADYYCSSRDLIGHYVFGGGTKLTVLG ?
Result: 57

Ask: Which SK-Br-3 pHER3 % inhibition is listed for MOR13665 (antibody, human IgG1, lambda, V domains shown) VH: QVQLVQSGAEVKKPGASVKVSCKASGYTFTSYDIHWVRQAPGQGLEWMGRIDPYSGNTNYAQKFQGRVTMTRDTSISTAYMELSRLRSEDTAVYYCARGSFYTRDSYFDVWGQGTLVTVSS VL: DIALTQPASVSGSPGQSITISCTGTSSDVGTYNQVSWYQQHPGKAPKLMIYGVSKRPSGVSNRFSGSKSGNTASLTISGLQAEDEADYYCQSAAIATSVFGGGTKLTVLG ?
Result: 59

Ask: Which SK-Br-3 pHER3 % inhibition is listed for MOR13660 (antibody, human IgG1, lambda, V domains shown) VH: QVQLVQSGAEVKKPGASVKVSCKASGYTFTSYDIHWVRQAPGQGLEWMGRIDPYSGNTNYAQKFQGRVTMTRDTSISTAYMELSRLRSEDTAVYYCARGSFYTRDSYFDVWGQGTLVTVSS VL: DIALTQPASVSGSPGQSITISCTGTSSDVGTYNQVSWYQQHPGKAPKLMIYGVSKRPSGVSNRFSGSKSGNTASLTISGLQAEDEADYYCAVRGSQTLVFGGGTKLTVLG ?
Result: 54

Ask: Which SK-Br-3 pHER3 % inhibition is listed for MOR12515 (antibody, human IgG1, lambda, V domains shown, Tested as IgG) VH: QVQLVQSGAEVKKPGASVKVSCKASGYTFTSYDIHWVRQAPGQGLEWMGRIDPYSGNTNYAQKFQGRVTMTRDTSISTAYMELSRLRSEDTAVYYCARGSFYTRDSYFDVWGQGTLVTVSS VL: DIALTQPASVSGSPGQSITISCTGTSSDVGTYNQVSWYQQHPGKAPKLMIYGVSKRPSGVSNRFSGSKSGNTASLTISGLQAEDEADYYCYSRDSPMDQVFGGGTKLTVLG ?
Result: 76

Ask: Which SK-Br-3 pHER3 % inhibition is listed for MOR13656 (antibody, human IgG1, lambda, V domains shown) VH: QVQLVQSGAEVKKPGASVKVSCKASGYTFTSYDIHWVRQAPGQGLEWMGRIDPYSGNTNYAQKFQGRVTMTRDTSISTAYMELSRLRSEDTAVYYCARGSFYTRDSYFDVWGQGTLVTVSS VL: DIALTQPASVSGSPGQSITISCTGTSSDVGTYNQVSWYQQHPGKAPKLMIYGVSKRPSGVSNRFSGSKSGNTASLTISGLQAEDEADYYCAVRDSVWHVFGGGTKLTVLG ?
Result: 60

The reported numbers originate from patent US20130251703A1.
